# measurementNotes: Solubility of the compound at pH 2
# Type: physicochemical
# assayConditions: buffer
Kindly return y if reported solubility is no lower than 600 µg/mL; return n if it is lower.

Does the reported solubility for "Cc1cc(-c2cnn3c(NCC4CCOCC4)cc(N[C@H]4CCCC[C@H]4O)nc23)ccc1C(=O)NC1CC1" fall at or above the 600 µg/mL mark?
n

* * *

molecules and their reported bioavailability
# measurementNotes: Bioavailability in beagle dog at 5 mg/kg by LC-MS/MS analysis
# Assay type: ADME, organism-based, Canis lupus familiaris
# assayConditions: in vivo
Give the quantity in %, number only.

Solved entries:
molecule	experimentalValue
Cc1cc(-c2cnn3c(NCC4CC4)cc(NC4CCCC[C@H]4O)nc23)ccc1C(=O)NC1CC1 (single isomer, unassigned)	95
Cc1cc(-c2cnn3c(NCCN4CCOCC4)cc(Oc4cccc(F)c4)nc23)ccc1C(=O)NC1CC1	77
Cc1cc(-c2cnn3c(NCC4CCOCC4)cc(N[C@@H](C4CC4)C(C)(C)O)nc23)ccc1C(=O)NC1CC1	98

Please examine the following record next.
Could you tell me which bioavailability is on file for Cc1cc(-c2cnn3c(NC[C@H]4C[C@@](C)(O)C4)cc(Oc4cccnc4)nc23)ccc1C(=O)NC1CC1 [LUVIXASERTIB] ?
114
